B1: KAT8 regulatory NSL complex subunit 2, residues 28 to 91; numbered along this chain, Q9H9L4 (parent)
chain: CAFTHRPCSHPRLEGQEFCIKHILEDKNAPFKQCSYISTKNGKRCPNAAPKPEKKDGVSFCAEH

Variants of: B1
Experiment: abundance fitness (aPCA) (normalised: wild type 0, dead -1); higher = more abundant; growth selection in yeast, the domain comes from the species named
Details: Homo sapiens
Classify as follows. Reported abundance fitness greater than or equal to -0.1: condition met. Reported abundance fitness below: condition not met.

Check out these entries, answers already filled in.
1) CAFTHRPCSHPRLEGQEFCIKHILEDKNHPFKQCSYISTKNGKRCPNAAPKPEKKDGVSFCAEH; condition not met
2) CAFTHRPCSHPRLEGQMFCIKHILEDKNAPFKQCSYISTKNGKRCPNAAPKPEKKDGVSFCAEH; condition met

Does the reported abundance fitness for `CAFTHRPCSHPRLEGQEFCIKHILEDKNAPFKQCSYISTKNGKRCPNLAPKPEKKDGVSFCAEH` fall at or above the -0.1 mark?
condition not met

Similarly, `CAFTHRPCSHPRLEGQEFCIKHILEDKNAPFKQCSYISTKNGKRCENAAPKPEKKDGVSFCAEH` ?
condition met

This collection of values is drawn from the Human Domainome abundance scans (Beltran et al. 2025).
